Measured Target: T1, mouse serum albumin (mouse, UniProt P07724 25-608)
T1 construct: also called MSA; MuSA
T1 sequence (P07724 25-608 limits assumed): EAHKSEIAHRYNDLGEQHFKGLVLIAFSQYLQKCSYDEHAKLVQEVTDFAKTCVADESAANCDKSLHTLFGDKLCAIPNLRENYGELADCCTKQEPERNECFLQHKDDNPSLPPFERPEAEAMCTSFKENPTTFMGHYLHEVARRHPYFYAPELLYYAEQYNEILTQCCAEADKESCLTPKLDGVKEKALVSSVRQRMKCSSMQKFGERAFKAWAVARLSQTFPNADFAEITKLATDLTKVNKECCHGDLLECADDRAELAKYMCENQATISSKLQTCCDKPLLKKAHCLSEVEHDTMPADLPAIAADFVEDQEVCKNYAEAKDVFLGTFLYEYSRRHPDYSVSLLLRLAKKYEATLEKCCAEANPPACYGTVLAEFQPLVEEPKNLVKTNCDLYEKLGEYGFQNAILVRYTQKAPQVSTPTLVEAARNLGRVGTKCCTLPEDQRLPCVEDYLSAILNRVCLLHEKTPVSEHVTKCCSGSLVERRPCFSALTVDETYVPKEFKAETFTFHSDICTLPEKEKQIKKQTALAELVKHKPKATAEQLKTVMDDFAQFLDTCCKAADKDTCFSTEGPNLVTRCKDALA
Procedure Text: SPR, albumin immobilized;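 also: biacore SPR with human, rhesus or mouse serum albumin amine-coupled to the chip (about 1200 RU), 3 min association, 6-10 min dissociation, reference-subtracted traces fitted with a 1:1 model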
pKd overview
Would you please state pKd, meaning minus log10 of the concentration in mol/L, as a bare number?

// worked examples, pKd included
INSERT INTO assay_data (binder, recorded_endpoint, recorded_measurement) VALUES
  ('PKE2 Adnectin 2629_E06 (designed binder, 10Fn3 domain with modified CD loop; the entry includes the His6 tail; also called ADX_2629_E06) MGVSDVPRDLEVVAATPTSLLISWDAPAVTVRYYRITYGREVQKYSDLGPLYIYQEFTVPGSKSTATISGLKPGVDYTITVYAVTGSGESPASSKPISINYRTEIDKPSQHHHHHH', 'pKd', 8.44),
  ('PCSK9-PKE2 tandem Adnectin w/ his tag 4472_C06 (designed binder, also called ATI-1574; ADX_4472_C06) MGVSDVPRDLEVVAATPTSLLISWDAPAEGYGYYRITYGETGGNSPVQEFTVPVSKGTATISGLKPGVDYTITVYAVEFDFPGAGYYHRPISINYRTEPSTPPTPSPSTPPTPSPSGVSDVPRDLEVVAATPTSLLISWDAPAVTVRYYRITYGREVQKYSDLGPLYIYQEFTVPGSKSTATISGLKPGVDYTITVYAVTGSGESPASSKPISINYRTEHHHHHH', 'pKd', 7.58),
  ('PCSK9-PKE2 tandem 4472_F08 (designed binder, The real molecule is ONE polypeptide: PCSK9 domain, undisclosed linker F, PKE2 domain. It is given here as two chains because the linker letters are unknown., not shown: The inter-domain linker) PCSK9 domain: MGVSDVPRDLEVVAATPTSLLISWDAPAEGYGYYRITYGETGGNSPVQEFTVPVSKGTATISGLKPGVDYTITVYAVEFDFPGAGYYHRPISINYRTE PKE2 domain: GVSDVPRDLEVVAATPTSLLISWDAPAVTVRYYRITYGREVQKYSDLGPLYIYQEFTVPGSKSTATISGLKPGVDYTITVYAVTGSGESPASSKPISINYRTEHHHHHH', 'pKd', 7.59);

Proceed to the following item.
Req: Return reported pKd; argument: PCSK9-PKE2 tandem 4472_E06 (designed binder, The real molecule is ONE polypeptide: PCSK9 domain, undisclosed linker I (a code letter), PKE2 domain. It is given here as two chains because the linker letters are unknown., also called 4427_E06; not shown: The inter-domain linker) PCSK9 domain: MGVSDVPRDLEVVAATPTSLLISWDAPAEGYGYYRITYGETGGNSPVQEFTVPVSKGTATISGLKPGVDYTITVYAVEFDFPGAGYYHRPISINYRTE PKE2 domain: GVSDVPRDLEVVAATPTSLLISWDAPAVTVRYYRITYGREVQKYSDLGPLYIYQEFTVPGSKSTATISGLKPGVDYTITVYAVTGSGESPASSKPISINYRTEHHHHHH
Resp: 7.70

Origin of values: patent US20200048328A1
